Target: human Claudin18.2 (human)
Assay: cell-based or functional assay
Overview of recorded CDC EC50 for various binders
// units = µg/mL; emit number, no label

Study these solved cases before continuing.
260F8A6 (antibody, V domains shown) VH: QAYLQQSGAELVRSGASVKMSCRASGYTFTSHNMHWVKQTPGQGLEWIGYIYPGNGNTYYNQKFKGKATLTADTSSNTAYMQINSLTSEDSAVYFCVRDYYGNSFVYWGQGTLVTVSA VL: DVVMTQSPSSLTEKTGEKVSMSCKSSQSLLNSGNQKNYLTWYQQKPGQPPKLLIYWASTRESGVPDRFIGSGSGTDFTLTISSLQTEDLAVYYCQNNYMYPFTFGAGTKLELK : 1.15
407D8G1 (antibody, V domains shown) VH: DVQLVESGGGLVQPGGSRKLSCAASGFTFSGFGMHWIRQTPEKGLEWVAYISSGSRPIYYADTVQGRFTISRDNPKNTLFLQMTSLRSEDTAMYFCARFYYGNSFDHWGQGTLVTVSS VL: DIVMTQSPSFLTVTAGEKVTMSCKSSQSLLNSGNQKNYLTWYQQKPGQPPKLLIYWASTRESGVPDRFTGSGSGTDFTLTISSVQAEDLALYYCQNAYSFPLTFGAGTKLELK : 0.308
395B3C11 (antibody, V domains shown) VH: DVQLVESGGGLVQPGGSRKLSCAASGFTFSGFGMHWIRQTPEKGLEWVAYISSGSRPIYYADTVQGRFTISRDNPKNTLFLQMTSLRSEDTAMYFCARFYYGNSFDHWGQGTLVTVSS VL: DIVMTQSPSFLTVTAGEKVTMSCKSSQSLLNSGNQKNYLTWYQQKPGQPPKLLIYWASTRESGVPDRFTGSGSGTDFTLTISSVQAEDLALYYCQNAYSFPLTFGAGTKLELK : 1.8
267H5F12 (antibody, V domains shown) VH: QAYLQQSGAELVRSGASVKMSCKASGYTFTSHNMHWVKQTPGQGLEWIGYISPGNGYTNYNQKFRGKATLTADTSSSTAYMQISSLTSEDSAVYFCTRDYYGNSFTYWGQGTLVTVSA VL: DIVMTQSPSSLTEKAGERVSMSCKSSQSLFNSGNQKNYLTWYQQKPGQPPKLLIYWASTRESGVPDRFTGSGSGTEFTLTISSVQAEDLAVYYCQNNYWFPFTFGAGTKLELK : 1

Now consider a different binder.
Let me know recorded CDC EC50 for 259C6F7 (antibody, V domains shown) VH: QAYLQQSGAELVRSGASVKMSCKASGYTFSSHNIHWVKQTPGQGLEWIGYIYPGNGDTNYNQKFKGKATLTADTSSSTAYMQISSLTSEDSAVYFCARDYYGNSFVYWGQGTLVTVSA VL: DIVMIQSPSSLTEKAGEKVSMSCKSSQSLLNSGNQKNYLTWYQQKPGQPPKLLIYWASTRESGVPDRFTGSGSGTDFTLTISSVQAEDLAVYYCQNAYRFPFTFGAGTKLELK , thanks.
1.27
